B1: LINE1-full (parent)
chain: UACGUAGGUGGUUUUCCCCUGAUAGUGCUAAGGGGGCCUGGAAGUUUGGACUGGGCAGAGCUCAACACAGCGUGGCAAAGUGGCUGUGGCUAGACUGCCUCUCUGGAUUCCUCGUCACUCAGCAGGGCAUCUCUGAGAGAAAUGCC

Variants of: B1
Test: self-cleavage, relative activity (ratio to wild type); higher = more cleavage; in vitro, sequencing; the parent is a self-cleaving ribozyme
// self-cleavage lookup, one value per entry
Just the number.

Problem: Please report self-cleavage for the following variant: U13C C37U
Solution: 1.33

Each recorded value in this set is attributed to the RNAGym collection of RNA variant scans (doi:10.7554/elife.90254).
